biological target: DNA-PK(h) (Homo sapiens); assay: Evaluation of inhibitory activity against DNA-PK (HTRF kinase assay, GST-cMyc-p53 substrate); assay type: biochemical; conditions: compound concentration 0.1 μM; read-out: EXP_VALUE(% Inhibition) DNA-PK(h) 0.1 μM
Attribute: inhibition at 0.1 µM
Kindly answer with a numeric value in %, unit omitted.

Task item: Recorded inhibition at 0.1 µM of COc1cccc2c(Cl)c([C@H](C)Nc3ncnc4[nH]ccc(=O)c34)n(-c3ccccc3)c(=O)c12 [Example 365] , please.
Reply: 65

Task item: # inhibition at 0.1 µM lookup, item C[C@H](Nc1ncnc2[nH]ccc(=O)c12)c1c(Cl)c2cccc(N3CCN(C4CCN(C)CC4)CC3)c2c(=O)n1-c1ccccc1 [Example 11]
Reply: 53

Task item: What value of inhibition at 0.1 µM has been recorded for this entry: C[C@H](Nc1ncnc2[nH]ccc(=O)c12)c1c(Cl)c2cccc(-c3ccc4c(c3)ncn4C)c2c(=O)n1-c1ccccc1 [Example 114]
Reply: 97

Task item: Item under review: C[C@H](Nc1ncnc2[nH]ccc(=O)c12)c1c(Cl)c2cccc(N3CCOCC3)c2c(=O)n1-c1ccccc1 [Example 251] . Reported inhibition at 0.1 µM?
Reply: 60

====

target: PI3K-δ (PI3K(p1108/p857) (h)) (Homo sapiens); assay: Evaluation of inhibitory activity against PI3K-δ (HTRF kinase assay); assay type: biochemical; conditions: compound concentration 0.01 μM; read-out: EXP_VALUE(% Inhibition) PI3K-δ 0.01 μM
Please use MET whenever inhibition at 0.01 µM is not below 60%, and NOT MET whenever it is.

Task item: Please indicate if the recorded inhibition at 0.01 µM for "COc1ccc(-c2cccc3c(Cl)c([C@H](C)Nc4ncnc5[nH]ccc(=O)c45)n(-c4ccccc4)c(=O)c23)cc1" meets or exceeds 60%.
Reply: MET

Task item: Could you verify whether the entry "C[C@H](Nc1ncnc2[nH]ccc(=O)c12)c1c(Cl)c2cccc(N(C)C)c2c(=O)n1-c1ccccc1" shows inhibition at 0.01 µM of no less than 60%?
Reply: MET

Task item: Would you say "C[C@H](Nc1ncnc2[nH]ccc(=O)c12)c1c(Cl)c2cccc(C(=O)NCc3cccs3)c2c(=O)n1-c1ccccc1" shows inhibition at 0.01 µM at minimum 60%?
Reply: MET

Task item: Decide: inhibition at 0.01 µM of "C[C@H](Nc1ncnc2[nH]ccc(=O)c12)c1c(Cl)c2cccc(N(C)C3CCCCC3)c2c(=O)n1-c1ccccc1" >= 60%?
Reply: NOT MET

Task item: Tell me whether inhibition at 0.01 µM is at least 60% here: "C[C@H](Nc1ncnc2[nH]ccc(=O)c12)c1c(Cl)c2cccc(N3CCN(c4ccccc4O)CC3)c2c(=O)n1-c1ccccc1"
Reply: NOT MET

Continuing:
Task item: Reported inhibition at 0.01 µM reaches at least 60% for C[C@H](Nc1ncnc2[nH]ccc(=O)c12)c1c(Cl)c2cccc(NC3CCOC3)c2c(=O)n1-c1ccccc1 (some centres unmarked) ?
Reply: NOT MET

====

Measured inhibition at 0.01 µM of individual entries
target: PI3K-δ (PI3K(p1108/p857) (h)) (Homo sapiens, UniProt O00329); assay: Evaluation of inhibitory activity against PI3K-δ (HTRF kinase assay); assay type: biochemical; conditions: compound concentration 0.01 μM; read-out: EXP_VALUE(% Inhibition) PI3K-δ 0.01 μM
Sequence (O00329 whole entry): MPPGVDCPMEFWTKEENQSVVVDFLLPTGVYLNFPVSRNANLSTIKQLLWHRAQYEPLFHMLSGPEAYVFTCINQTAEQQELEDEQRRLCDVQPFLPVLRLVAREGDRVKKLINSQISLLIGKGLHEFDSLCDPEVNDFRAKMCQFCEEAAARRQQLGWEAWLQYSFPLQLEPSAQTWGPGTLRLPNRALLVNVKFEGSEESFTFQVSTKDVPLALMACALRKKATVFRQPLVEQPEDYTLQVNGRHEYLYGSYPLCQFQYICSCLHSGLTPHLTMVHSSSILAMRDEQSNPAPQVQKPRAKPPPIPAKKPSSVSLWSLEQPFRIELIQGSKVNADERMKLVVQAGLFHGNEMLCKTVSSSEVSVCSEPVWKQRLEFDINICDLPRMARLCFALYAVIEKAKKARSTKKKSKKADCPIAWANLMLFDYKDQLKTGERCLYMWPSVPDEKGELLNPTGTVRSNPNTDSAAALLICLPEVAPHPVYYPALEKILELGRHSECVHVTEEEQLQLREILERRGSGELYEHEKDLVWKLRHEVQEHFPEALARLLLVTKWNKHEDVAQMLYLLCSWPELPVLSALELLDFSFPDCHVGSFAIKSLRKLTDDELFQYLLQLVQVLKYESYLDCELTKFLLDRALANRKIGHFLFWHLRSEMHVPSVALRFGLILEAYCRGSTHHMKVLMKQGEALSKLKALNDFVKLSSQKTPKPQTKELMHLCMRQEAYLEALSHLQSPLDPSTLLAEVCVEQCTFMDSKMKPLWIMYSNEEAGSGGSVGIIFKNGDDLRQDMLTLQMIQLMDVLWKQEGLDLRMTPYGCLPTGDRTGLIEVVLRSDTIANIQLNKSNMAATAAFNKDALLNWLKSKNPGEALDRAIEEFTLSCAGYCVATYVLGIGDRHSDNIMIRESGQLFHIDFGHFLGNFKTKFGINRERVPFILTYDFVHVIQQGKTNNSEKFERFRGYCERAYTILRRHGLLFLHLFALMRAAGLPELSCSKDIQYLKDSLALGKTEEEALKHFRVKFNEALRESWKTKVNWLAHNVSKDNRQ
Sequence (P27986 whole entry partner): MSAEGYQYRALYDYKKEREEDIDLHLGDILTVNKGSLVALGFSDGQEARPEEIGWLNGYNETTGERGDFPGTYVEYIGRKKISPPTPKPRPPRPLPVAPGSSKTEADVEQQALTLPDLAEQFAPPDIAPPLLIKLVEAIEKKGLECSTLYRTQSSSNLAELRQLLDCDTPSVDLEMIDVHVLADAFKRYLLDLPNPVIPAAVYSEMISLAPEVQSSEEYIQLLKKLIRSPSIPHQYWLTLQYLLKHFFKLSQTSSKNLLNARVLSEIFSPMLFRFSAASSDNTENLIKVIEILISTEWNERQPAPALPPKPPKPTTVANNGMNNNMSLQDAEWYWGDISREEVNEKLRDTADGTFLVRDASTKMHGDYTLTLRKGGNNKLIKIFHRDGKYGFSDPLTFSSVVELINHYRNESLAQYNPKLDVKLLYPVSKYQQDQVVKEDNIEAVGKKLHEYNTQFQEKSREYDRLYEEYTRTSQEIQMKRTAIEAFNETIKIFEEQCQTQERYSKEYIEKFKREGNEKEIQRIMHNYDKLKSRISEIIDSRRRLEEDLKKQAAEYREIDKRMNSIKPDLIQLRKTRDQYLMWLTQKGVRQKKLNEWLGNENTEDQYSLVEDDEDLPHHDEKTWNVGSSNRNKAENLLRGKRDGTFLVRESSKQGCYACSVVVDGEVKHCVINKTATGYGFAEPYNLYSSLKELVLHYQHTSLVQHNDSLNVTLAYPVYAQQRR

Task item: // query inhibition at 0.01 µM value for entry "C[C@H](Nc1ncnc2[nH]ccc(=O)c12)c1c(Cl)c2cccc(-c3cnc(Cl)c4ccccc34)c2c(=O)n1-c1ccccc1"
Reply: 3.3%

---
Task item: Value lookup for inhibition at 0.01 µM; key = "C[C@H](Nc1ncnc2[nH]ccc(=O)c12)c1c(Cl)c2cccc(-c3cnc4[nH]ccc4c3)c2c(=O)n1-c1ccccc1"
Reply: 6%

Task item: What value of measured inhibition at 0.01 µM is listed for "C[C@H](Nc1ncnc2[nH]ccc(=O)c12)c1c(Cl)c2cccc(-c3ccc(-c4ccon4)cc3)c2c(=O)n1-c1ccccc1" ?
Reply: 92%

Data origin, for the record: patent US20230072683A1
